Listing: Intrinsic activity of selected molecules
- SYSTEM: Neuropeptide Y receptor type 4 (Homo sapiens, UniProt P50391)
- Sequence (P50391 whole entry): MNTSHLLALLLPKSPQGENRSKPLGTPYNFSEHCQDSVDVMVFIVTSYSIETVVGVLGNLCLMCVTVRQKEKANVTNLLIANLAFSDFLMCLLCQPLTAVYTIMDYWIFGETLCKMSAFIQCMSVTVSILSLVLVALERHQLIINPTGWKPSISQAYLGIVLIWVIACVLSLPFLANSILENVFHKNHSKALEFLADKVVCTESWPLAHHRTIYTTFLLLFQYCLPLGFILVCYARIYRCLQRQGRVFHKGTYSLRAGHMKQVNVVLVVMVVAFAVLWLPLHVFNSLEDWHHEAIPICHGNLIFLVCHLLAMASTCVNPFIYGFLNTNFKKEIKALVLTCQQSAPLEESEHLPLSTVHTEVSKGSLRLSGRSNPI
- ASSAY OVERVIEW: Intrinsic activity at human NPY Y4 receptor expressed in HEK293 cells co-expressing CRE-Luc gene assessed as inhibition of forskolin stimulated luciferase activity after 4.5 hrs by luminescence assay relative to pancreatic polypeptide
- Assay type: functional, cell-based
Numbered stars: 1 amine (or outer) side, 2 acyl side, 3 side chain; on linkers, the order of the positions; unused ones are H or OH. Bridge positions count the residues as written; N and C are the ends. Peptide text beside a SMILES is read from it. I, II: the chains in the order shown. Suberoyl = O=C(CCCCCCC(=O)[*:2])[*:1]
Form rule: numeric answer, no unit written next to it.

Reference set (4 entries):
{"MOLECULE": "CC[C@H](C)[C@H](N)C(=O)N[C@H]1CCC(=O)NC[C@@H](C(=O)N[C@@H](Cc2ccc(O)cc2)C(=O)N[C@@H](CCCN=C(N)N)C(=O)N[C@@H](CC(C)C)C(=O)N[C@@H](CCCN=C(N)N)C(=O)N[C@@H](Cc2ccc(O)cc2)C(N)=O)NC(=O)[C@@H]2CCCN2C(=O)[C@H](NC(=O)[C@@H](N)[C@@H](C)CC)CCC(=O)NC[C@H](C(=O)N[C@@H](Cc2ccc(O)cc2)C(=O)N[C@@H](CCCN=C(N)N)C(=O)N[C@@H](CC(C)C)C(=O)N[C@@H](CCCN=C(N)N)C(=O)N[C@@H](Cc2ccc(O)cc2)C(N)=O)NC(=O)[C@@H]2CCCN2C1=O", "MEASURED PROPERTY": "Intrinsic activity", "REPORTED": 1.01}
{"MOLECULE": "CCC(=O)N[C@@H](CCCC[C@H](N)C(=O)N[C@@H](Cc1ccc(O)cc1)C(=O)N[C@@H](CCCNC(=N)N)C(=O)N[C@@H](CC(C)C)C(=O)N[C@@H](CCCNC(=N)N)C(=O)N[C@@H](Cc1ccc(O)cc1)C(N)=O)C(=O)N[C@@H](Cc1ccc(O)cc1)C(=O)N[C@@H](CCCNC(=N)N)C(=O)N[C@@H](CC(C)C)C(=O)N[C@@H](CCCNC(=N)N)C(=O)N[C@@H](Cc1ccc(O)cc1)C(N)=O", "MEASURED PROPERTY": "Intrinsic activity", "REPORTED": 1}
{"MOLECULE": "CC(C)C[C@H](NC(=O)[C@H](CCCNC(=N)N)NC(=O)[C@H](Cc1ccc(O)cc1)NC(=O)[C@@H](N)CCCC[C@H](N)C(=O)N[C@@H](Cc1ccc(O)cc1)C(=O)N[C@@H](CCCNC(=N)N)C(=O)N[C@@H](CC(C)C)C(=O)N[C@@H](CCCNC(=N)N)C(=O)N[C@@H](Cc1ccc(O)cc1)C(N)=O)C(=O)N[C@@H](CCCNC(=N)N)C(=O)N[C@@H](Cc1ccc(O)cc1)C(N)=O", "MEASURED PROPERTY": "Intrinsic activity", "REPORTED": 1.07}
{"MOLECULE": "CC(C)C[C@H](NC(=O)[C@H](C)NC(=O)[C@H](Cc1ccc(O)cc1)NC(=O)CCCCCCC(=O)N[C@@H](Cc1ccc(O)cc1)C(=O)N[C@@H](CCCNC(=N)N)C(=O)N[C@@H](CC(C)C)C(=O)N[C@@H](CCCNC(=N)N)C(=O)N[C@@H](Cc1ccc(O)cc1)C(N)=O)C(=O)N[C@@H](CCCNC(=N)N)C(=O)N[C@@H](Cc1ccc(O)cc1)C(N)=O (I: YALRY-NH2 / II: YRLRY-NH2; linker I:N-II:N via Suberoyl)", "MEASURED PROPERTY": "Intrinsic activity", "REPORTED": 0.98}

// next item, Intrinsic activity requested
### Prompt Quick one: Intrinsic activity of CC(C)C[C@H](NC(=O)[C@H](CCCNC(=N)N)NC(=O)[C@H](Cc1ccc(O)cc1)NC(=O)CCCCCCC(=O)N[C@@H](Cc1ccc(O)cc1)C(=O)N[C@@H](CCCNC(=N)N)C(=O)N[C@@H](CC(C)C)C(=O)N[C@@H](CCCNC(=N)N)C(=O)N[C@@H](Cc1ccc(O)cc1)C(N)=O)C(=O)N[C@@H](CCCNC(=N)N)C(=O)N[C@@H](Cc1ccc(O)cc1)C(N)=O (I: YRLRY-NH2 / II: YRLRY-NH2; linker I:N-II:N via Suberoyl) ?
### Response 0.93

====

- SYSTEM: Neuropeptide Y receptor type 4 (Homo sapiens, UniProt P50391)
- ASSAY OVERVIEW: Intrinsic activity at human NPY Y4 receptor expressed in CHO cells co-expressing Gqi5-mtAEQ assessed as induction of calcium mobilization by aequorin luminescence assay relative to pancreatic polypeptide
- Type: functional, cell-based
Numbered stars: 1 amine (or outer) side, 2 acyl side, 3 side chain; on linkers, the order of the positions; unused ones are H or OH. Bridge positions count the residues as written; N and C are the ends. Peptide text beside a SMILES is read from it. I, II: the chains in the order shown. Suberoyl = O=C(CCCCCCC(=O)[*:2])[*:1]
MEASURED PROPERTY: Intrinsic activity
Form rule: numeric answer, no unit written next to it.

{"COMPOUND": "CCC(=O)N[C@@H](CCCC[C@H](N)C(=O)N[C@@H](Cc1ccc(O)cc1)C(=O)N[C@@H](CCCNC(=N)N)C(=O)N[C@@H](CC(C)C)C(=O)N[C@@H](CCCNC(=N)N)C(=O)N[C@@H](Cc1ccc(O)cc1)C(N)=O)C(=O)N[C@@H](Cc1ccc(O)cc1)C(=O)N[C@@H](CCCNC(=N)N)C(=O)N[C@@H](CC(C)C)C(=O)N[C@@H](CCCNC(=N)N)C(=O)N[C@@H](Cc1ccc(O)cc1)C(N)=O", "Intrinsic activity": 0.76}
{"COMPOUND": "CC(C)C[C@H](NC(=O)[C@H](CCCNC(=N)N)NC(=O)[C@H](Cc1ccc(O)cc1)NC(=O)[C@H](N)CCCC[C@@H](N)C(=O)N[C@@H](Cc1ccc(O)cc1)C(=O)N[C@@H](CCCNC(=N)N)C(=O)N[C@@H](CC(C)C)C(=O)N[C@@H](CCCNC(=N)N)C(=O)N[C@@H](Cc1ccc(O)cc1)C(N)=O)C(=O)N[C@@H](CCCNC(=N)N)C(=O)N[C@@H](Cc1ccc(O)cc1)C(N)=O", "Intrinsic activity": 0.75}

### Prompt Quick one: Intrinsic activity of CC(C)C[C@H](NC(=O)[C@H](CCCNC(=N)N)NC(=O)[C@H](Cc1ccc(O)cc1)NC(=O)CCCCCCC(=O)N[C@@H](Cc1ccc(O)cc1)C(=O)N[C@@H](CCCNC(=N)N)C(=O)N[C@@H](CC(C)C)C(=O)N[C@@H](CCCNC(=N)N)C(=O)N[C@@H](Cc1ccc(O)cc1)C(N)=O)C(=O)N[C@@H](CCCNC(=N)N)C(=O)N[C@@H](Cc1ccc(O)cc1)C(N)=O (I: YRLRY-NH2 / II: YRLRY-NH2; linker I:N-II:N via Suberoyl) ?
### Response 0.73

====

- SYSTEM: Neuropeptide Y receptor type 5 (Homo sapiens)
- Sequence (Q15761 whole entry): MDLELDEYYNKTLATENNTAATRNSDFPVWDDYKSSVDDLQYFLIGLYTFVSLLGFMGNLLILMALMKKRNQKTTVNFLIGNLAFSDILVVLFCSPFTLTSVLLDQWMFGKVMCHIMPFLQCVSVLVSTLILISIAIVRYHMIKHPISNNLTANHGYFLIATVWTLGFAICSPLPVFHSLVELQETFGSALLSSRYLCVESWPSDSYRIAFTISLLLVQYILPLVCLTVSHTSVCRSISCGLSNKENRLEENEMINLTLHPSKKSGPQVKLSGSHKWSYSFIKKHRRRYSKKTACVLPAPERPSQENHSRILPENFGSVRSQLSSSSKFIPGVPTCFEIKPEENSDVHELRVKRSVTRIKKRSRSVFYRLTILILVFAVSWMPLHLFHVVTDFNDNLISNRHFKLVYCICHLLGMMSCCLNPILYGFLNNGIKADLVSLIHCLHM
Numbered stars: 1 amine (or outer) side, 2 acyl side, 3 side chain; on linkers, the order of the positions; unused ones are H or OH. Bridge positions count the residues as written; N and C are the ends. Square brackets hold non-standard residues; d marks the D form. Peptide text beside a SMILES is read from it. I, II: the chains in the order shown. X2 = NCCCCNC(=O)/N=C(\N)NCCC[C@H](N[*:1])C(=O)[*:2]; Suberoyl = O=C(CCCCCCC(=O)[*:2])[*:1]
MEASURED PROPERTY: Ki (nM)
Enter your answer as a number in nM; do not include the unit.

{"COMPOUND": "CC(C)C[C@H](NC(=O)[C@H](CCCNC(=N)N)NC(=O)[C@H](Cc1ccc(O)cc1)NC(=O)CCCCCCC(=O)N[C@@H](Cc1ccc(O)cc1)C(=O)N[C@@H](CCCN/C(N)=N/C(=O)NCCCCN)C(=O)N[C@@H](CC(C)C)C(=O)N[C@@H](CCCNC(=N)N)C(=O)N[C@@H](Cc1ccc(O)cc1)C(N)=O)C(=O)N[C@@H](CCCNC(=N)N)C(=O)N[C@@H](Cc1ccc(O)cc1)C(N)=O (I: Y[X2]LRY-NH2 / II: YRLRY-NH2; linker I:N-II:N via Suberoyl)", "SYSTEM": "Neuropeptide Y receptor type 5 (Homo sapiens)", "Ki / nM": 140}
{"COMPOUND": "CC(C)C[C@H](NC(=O)[C@H](C)NC(=O)[C@H](Cc1ccc(O)cc1)NC(=O)CCCCCCC(=O)N[C@@H](Cc1ccc(O)cc1)C(=O)N[C@@H](C)C(=O)N[C@@H](CC(C)C)C(=O)N[C@@H](CCCNC(=N)N)C(=O)N[C@@H](Cc1ccc(O)cc1)C(N)=O)C(=O)N[C@@H](CCCNC(=N)N)C(=O)N[C@@H](Cc1ccc(O)cc1)C(N)=O (I: YALRY-NH2 / II: YALRY-NH2; linker I:N-II:N via Suberoyl)", "SYSTEM": "Neuropeptide Y receptor type 5 (Homo sapiens)", "Ki / nM": 550}

### Prompt Quick one: Ki of "CC(C)C[C@H](NC(=O)[C@H](CCCNC(=N)N)NC(=O)[C@H](Cc1ccc(O)cc1)NC(=O)[C@@H](N)CCCC[C@H](N)C(=O)N[C@@H](Cc1ccc(O)cc1)C(=O)N[C@@H](CCCNC(=N)N)C(=O)N[C@@H](CC(C)C)C(=O)N[C@@H](CCCNC(=N)N)C(=O)N[C@@H](Cc1ccc(O)cc1)C(N)=O)C(=O)N[C@@H](CCCNC(=N)N)C(=O)N[C@@H](Cc1ccc(O)cc1)C(N)=O" ?
### Response 2100

### Prompt Quick one: Ki of CC(C)C[C@H](NC(=O)[C@H](CCCNC(=N)N)NC(=O)[C@H](Cc1ccc(O)cc1)NC(=O)CCCCCCC(=O)N[C@@H](Cc1ccc(O)cc1)C(=O)N[C@@H](CCCNC(=N)N)C(=O)N[C@@H](CC(C)C)C(=O)N[C@@H](CCCNC(=N)N)C(=O)N[C@@H](Cc1ccc(O)cc1)C(N)=O)C(=O)N[C@@H](C)C(=O)N[C@@H](Cc1ccc(O)cc1)C(N)=O (I: YRLAY-NH2 / II: YRLRY-NH2; linker I:N-II:N via Suberoyl) ?
### Response 460

### Prompt Quick one: Ki of "CCC(=O)N[C@H](CCCC[C@@H](N)C(=O)N[C@H](Cc1ccc(O)cc1)C(=O)N[C@H](CCCNC(=N)N)C(=O)N[C@H](CC(C)C)C(=O)N[C@H](CCCNC(=N)N)C(=O)N[C@H](Cc1ccc(O)cc1)C(N)=O)C(=O)N[C@@H](Cc1ccc(O)cc1)C(=O)N[C@@H](CCCNC(=N)N)C(=O)N[C@@H](CC(C)C)C(=O)N[C@@H](CCCNC(=N)N)C(=O)N[C@@H](Cc1ccc(O)cc1)C(N)=O" ?
### Response 400
